Measured % Inhibition at 200 µM by item
Test system: 5-helix bundle (5HB) protein mimicking hRSV fusion protein F
Experiment: 5HB-based competitive fluorescence polarization (FP) binding assay
Parameters: species or system human respiratory syncytial virus (hRSV)
Details: 200 µM peptide; inhibition of Fl-C35 tracer (5 nM) binding to 5HB (20 nM); FP buffer 20 mM PBS pH 7.4, 500 mM NaCl, 0.01% Tween-20, 0.05 mg/ml bovine gamma globulin; 1 h + 30 min at room temperature; ex 485/em 530 nm
Non-standard residues stand in square brackets, D forms with d. No end group written: not given here. Sar = CNCC(=O)O

substance: IS[Sar]VNEKINQSLAFIRKSDE [Sar3, sarcosine-substituted C20 peptide]
% Inhibition at 200 µM (%): 11.11

substance: ISQVNE[Sar]INQSLAFIRKSDE [Sar7, sarcosine-substituted C20 peptide]
% Inhibition at 200 µM (%): 100.00

substance: ISQVNEKINQSLAFIRPSDE [Peptide P17, proline-substituted C20 peptide]
% Inhibition at 200 µM (%): 6.48

substance: ISQVNEK[Sar]NQSLAFIRKSDE [Sar8, sarcosine-substituted C20 peptide]
% Inhibition at 200 µM (%): 26.85

substance: ISQVNEKINQSLAFIRKADE [Peptide A18, alanine-substituted C20 peptide]
% Inhibition at 200 µM (%): 36.81

substance: ISQVNEKINQSLAFIRASDE [Peptide A17, alanine-substituted C20 peptide]
% Inhibition at 200 µM (%): 100.00

substance: ISQVNEKINQSLAFIRKSDE [Peptide C20, 20 amino acid-long peptide derived from the 6th helix of hRSV fusion protein F]
% Inhibition at 200 µM (%): 100

substance: ISQVNEKINQALAFIRKSDE [Peptide A11, alanine-substituted C20 peptide]
% Inhibition at 200 µM (%): 33.18
